target: recombinant HIV-1 reverse transcriptase (Human immunodeficiency virus type 1 group M subtype B, UniProt P03366); construct: using recombinant HIV-1 reverse transcriptase; S. Hughes, ABL Basic Research NCI-FCRDC, Frederick MD (supplied, not a catalogue product); assay: Reverse transcriptase assay with rAdT and rCdG template/primer; format: biochemical; details: Table 7; rCdG template/primer; high dose test of 100 µM; read-out: Reverse transcriptase rCdG I50
Assign IC50 to each entry below.

Please go through the list and note IC50 for each compound.
1. CC(=O)NS(=O)(=O)c1ccc(NC(=O)c2ccccc2SC(=O)CCCCBr)cc1
2. CC(=O)NS(=O)(=O)c1ccc(NC(=O)c2ccccc2SC(=O)CCCC[n+]2ccccc2)cc1

// result
["> 100 µM", "> 100 µM"]
